# Measurement conditions: 298.15 K; 101.33 kPa; Liquid
Numbers after ± are expanded uncertainties.
Readout name: mass density

Task: State the recorded mass density for this entry: CC(C)OC(C)C
Result: 718.38 ± 0.76 kg/m3

Task: State the recorded mass density for this entry: Cc1ccc(C)cc1
Result: 856.85 ± 0.46 kg/m3

Task: State the recorded mass density for this entry: Cc1ccccc1C
Result: 875.92 ± 0.42 kg/m3

Task: State the recorded mass density for this entry: COC(C)(C)C
Result: 735.48 ± 0.27 kg/m3

Proceed to the following item.
Task: State the recorded mass density for this entry: Cc1cccc(C)c1
Result: 859.78 ± 0.49 kg/m3

Values compiled from the NIST ThermoML archive (doi:10.1021/je034279l).
